- Target desc: full-length human PKCι (Homo sapiens, UniProt P41743)
- Construct: Recombinant, full-length human PKCι expressed in Sf21 insect cells is also commercially available
- Sequence (P41743 whole entry): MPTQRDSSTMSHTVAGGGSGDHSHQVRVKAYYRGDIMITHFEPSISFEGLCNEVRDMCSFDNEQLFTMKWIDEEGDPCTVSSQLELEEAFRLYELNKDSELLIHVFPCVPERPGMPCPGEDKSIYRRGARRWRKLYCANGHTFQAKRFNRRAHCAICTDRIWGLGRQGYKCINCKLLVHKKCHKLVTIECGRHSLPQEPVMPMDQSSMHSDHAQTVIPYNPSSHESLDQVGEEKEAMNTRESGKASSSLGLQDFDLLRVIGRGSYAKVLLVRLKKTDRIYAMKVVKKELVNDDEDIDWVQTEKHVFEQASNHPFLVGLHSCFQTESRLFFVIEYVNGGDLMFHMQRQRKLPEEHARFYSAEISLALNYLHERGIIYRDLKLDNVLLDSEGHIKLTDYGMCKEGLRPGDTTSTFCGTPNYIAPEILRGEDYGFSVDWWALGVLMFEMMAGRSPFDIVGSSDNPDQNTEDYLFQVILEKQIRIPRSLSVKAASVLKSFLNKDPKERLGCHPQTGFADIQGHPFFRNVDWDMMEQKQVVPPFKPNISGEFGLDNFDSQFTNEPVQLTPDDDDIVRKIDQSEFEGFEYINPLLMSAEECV
- Protocol text: PKCι IC50 IMAP assay, full-length PKCι at 150 μM ATP
- Condition description: read-out: IC50 in IMAP assay against full length PKCi at 150 μM ATP
pIC50: −log10 of the molar value.
# pIC50 per entry

Worked cases, pIC50 given:
Molecule: COc1cncc2nc(-c3ccnc(Nc4cc(C#N)ccn4)c3)nc(N[C@@H]3CCNC3)c12 [Example 332]
Target desc: full-length human PKCι (Homo sapiens, UniProt P41743)
pIC50: > 7.00
--
Molecule: CCn1cc(Cl)c(Nc2cc(-c3nc(N4CCNC(C)(C)C4)c4c(C5CC5)cncc4n3)ccn2)n1 [Example 2043]
Target desc: full-length human PKCι (Homo sapiens, UniProt P41743)
pIC50: > 7.00
--
Molecule: CN(c1nc(-c2ccnc(Nc3ncc(F)cc3F)c2)nc2c(Cl)ncc(C3CC3)c12)C1CCNCC1 [Example 2170]
Target desc: full-length human PKCι (Homo sapiens, UniProt P41743)
pIC50: > 7.00

Recall and state the measured pIC50 for COc1cncc2nc(-c3ccnc(NC(=O)c4ccccc4)c3)nc(N3CCNCC3)c12 [Example 212] .
> 7.00

Query pIC50 for Fc1cccc(F)c1Nc1cc(-c2nc(N[C@H]3CCNC3)c3c(C4CC4)cncc3n2)ccn1 [Example 2034]
> 7.00

Assign pIC50 to the following record: N[C@H](CNc1nc(-c2ccncc2)nc2c(-c3cccc(O)c3)nccc12)Cc1ccccc1 [Example 92]
5.00 to 6.00

For the molecule COc1cncc2nc(-c3ccnc(Nc4ccccc4)c3)nc(N3CCN[C@@H](CC#N)C3)c12 [Example 232] , give its reported pIC50.
6.00 to 7.00

Tell me measured pIC50 for OC1CCN(c2nc(-c3ccnc(Nc4ccccc4F)c3)nc3cncc(C4CC4)c23)CC1 [Example 274] please.
6.00 to 7.00

----------
- Target desc: full-length human PKCι (Homo sapiens)
- Construct: Recombinant, full-length human PKCι expressed in Sf21 insect cells is also commercially available
- Protocol text: PKCι IC50 IMAP assay, full-length PKCι at 150 μM ATP
- Condition description: read-out: IC50 in IMAP assay against full length PKCi at 150 μM ATP
Where a name gives a salt, the structure may show the parent alone.
Measured metric: IC50

Molecule: OC1CCN(c2nc(-c3ccnc4[nH]c5ccccc5c34)nc3cncc(C4CC4)c23)CC1 [Example 1254, trifluoroacetic acid salt]
Target desc: full-length human PKCι (Homo sapiens)
IC50: 100 to 1000 nM
//
Molecule: COc1cncc2nc(-c3ccnc(Nc4ccc(N5CCOCC5)nc4)c3)nc(N[C@@H]3CCNC3)c12
Target desc: full-length human PKCι (Homo sapiens)
IC50: < 100 nM

Quickly give me recorded IC50 for O[C@H]1Cc2ccccc2[C@H]1Nc1cc(-c2nc(N3CCNCC3)c3c(C4CC4)cncc3n2)ccn1
100 to 1000 nM

Retrieve IC50 measured for COc1cncc2nc(-c3ccnc(N)c3)nc(N3CCNCC3)c12 and print it.
< 100 nM

----------
- Target desc: full-length human PKCι (Homo sapiens, UniProt P41743)
- Construct: Recombinant, full-length human PKCι expressed in Sf21 insect cells is also commercially available
- Protocol text: PKCι IC50 IMAP assay, full-length PKCι at 150 μM ATP
- Condition description: read-out: IC50 in IMAP assay against full length PKCi at 150 μM ATP
pIC50: −log10 of the molar value.
Measured pIC50 of individual entries

Compound: NC(=O)COc1ccc(Nc2cc(-c3nc(N[C@@H]4CCNC4)c4ccncc4n3)ccn2)cc1 [Example 310]
Data value: 6.00 to 7.00
//
Compound: C#CC1CN(c2nc(-c3ccncc3)nc3cnccc23)CCN1 (stereo not shown) [Example 71]
Data value: 5.00 to 6.00
//
Compound: COCc1ccccc1Nc1cc(-c2nc(N3CCNCC3)c3c(C4CC4)cncc3n2)ccn1 [Example 517]
Data value: 6.00 to 7.00
//
Compound: FC(F)(F)c1cccc(Nc2cc(-c3nc(N4CCNCC4)c4c(C5CC5)cncc4n3)ccn2)c1 [Example 646]
Data value: > 7.00
//
Compound: COc1cncc2nc(-c3ccnc(NC(=O)Cc4cccnc4)c3)nc(N3CCNCC3)c12 [Example 399]
Data value: > 7.00

State its pIC50 for this compound: Cc1ccc(Nc2cc(-c3nc(N4CCNCC4)c4c(C5CC5)cncc4n3)ccn2)c(F)c1 [Example 575]
> 7.00

Identify the reported pIC50 for the following entry. COc1cccc(CC(=O)Nc2cc(-c3nc(N4CCNCC4)c4c(OC)cncc4n3)ccn2)c1 [Example 372]
> 7.00

Specify pIC50 for CS(=O)(=O)C[C@H]1CN(c2nc(-c3ccnc(Nc4c(F)cccc4F)c3)nc3cncc(C4CC4)c23)CCN1 [Example 772] and stop.
6.00 to 7.00

Please give measured pIC50 of the following entry: c1ccc(Nc2cc(-c3nc(N4CCNCC4)c4c(C5CC5)cncc4n3)ccn2)cc1 [Example 279]
> 7.00

----------
IC50 values by entry
- Target desc: full-length human PKCι (Homo sapiens)
- Construct: Recombinant, full-length human PKCι expressed in Sf21 insect cells is also commercially available
- Protocol text: PKCι IC50 IMAP assay, full-length PKCι at 150 μM ATP
- Condition description: read-out: IC50 in IMAP assay against full length PKCi at 150 μM ATP

Recorded IC50, per entry:
Compound: CC1(C)CN(c2nc(-c3ccnc4[nH]c(C(F)(F)F)cc34)nc3cncc(C4CC4)c23)CCN1
Data value: < 100 nM
--
Compound: CCOc1cccc(-c2nccc3c(NC[C@@H](N)Cc4ccccc4)nc(-c4ccncc4)nc23)c1
Data value: 1000 to 10000 nM
--
Compound: Cc1cncc2nc(-c3ccncc3)nc(N3CCNCC3)c12
Data value: < 100 nM
--
Compound: C[C@@H](Nc1cc(-c2nc(N3CCNCC3)c3c(C4CC4)cncc3n2)ccn1)c1ccc(F)cc1
Data value: < 100 nM
--
Compound: COc1cncc2nc(-c3ccnc(NC(=O)[C@@H](C)c4ccccc4)c3)nc(N[C@@H]3CCNC3)c12
Data value: 100 to 1000 nM

Note IC50 for the compound shown: Fc1cc(F)c(Nc2cc(-c3nc(N4CCNCC4)c4c(C5CC5)cncc4n3)ccn2)nc1F
< 100 nM

Identify the reported IC50 for the following entry. C[C@H]1CN(c2nc(-c3ccnc4[nH]c(C(C)(C)C)cc34)nc3cncc(C4CC4)c23)CCN1
< 100 nM

Consider the compound Cn1cnc(Nc2cc(-c3nc(N4CCNCC4)c4c(C5CC5)cncc4n3)ccn2)c1 and give its recorded IC50.
< 100 nM

Please supply the value of reported IC50 for the item FC(F)(F)c1cc2c(-c3nc(N4CCNCC4)c4c(C5CCC5)cncc4n3)ccnc2[nH]1
< 100 nM

----------
- Target desc: full-length human PKCι (Homo sapiens)
- Construct: Recombinant, full-length human PKCι expressed in Sf21 insect cells is also commercially available
- Protocol text: PKCι IC50 IMAP assay, full-length PKCι at 150 μM ATP
- Condition description: read-out: IC50 in IMAP assay against full length PKCi at 150 μM ATP
Measured IC50, listed per entry for reference.

# example entries with known answers
Compound: N[C@H](CNc1nc(-c2ccncc2)nc2c(-c3ccc(Cl)cc3)nccc12)Cc1ccccc1
IC50: 100 to 1000 nM
--
Compound: COc1cncc2nc(-c3ccncc3)nc(N3CCC(N)(C(N)=O)C3)c12 (centres unmarked)
IC50: 1000 to 10000 nM
--
Compound: CN(c1nc(-c2ccnc(Nc3c(F)cccc3F)c2)nc2cncc(C3CC3)c12)C1CNC1
IC50: < 100 nM
--
Compound: COc1cncc2nc(-c3ccnc(NC(C)=O)c3)nc(N3CCC(O)CC3)c12
IC50: 100 to 1000 nM
--
Compound: Cc1ccc(Nc2cc(-c3nc(N4CCNCC4)c4c(C5CC5)cncc4n3)ccn2)c(C)c1
IC50: < 100 nM

Find the measured IC50 of Fc1cnc(Nc2cc(-c3nc(N4CCNCC4)c4c(C5CC5)cnc(C5CC5)c4n3)ccn2)c(F)c1 and report it.
100 to 1000 nM

Fill in IC50 for record N[C@H](CNc1nc(-c2ccncc2)nc2c(-c3ccccc3Cl)nccc12)Cc1ccccc1
100 to 1000 nM

Entry COc1cncc2nc(-c3ccnc(Nc4cnccn4)c3)nc(N[C@@H]3CCNC3)c12 needs its IC50 filled in; supply it.
< 100 nM

----------
- Target desc: full-length human PKCι (Homo sapiens)
- Construct: Recombinant, full-length human PKCι expressed in Sf21 insect cells is also commercially available
- Protocol text: PKCι IC50 IMAP assay, full-length PKCι at 150 μM ATP
- Condition description: read-out: IC50 in IMAP assay against full length PKCi at 150 μM ATP
pIC50: −log10 of the molar value.
Recorded pIC50 values for a group of compounds are listed next.

Compound: Fc1cncc(F)c1Nc1cc(-c2nc(N3CCNCC3)c3c(C4CC4)cncc3n2)ccn1
Measured metric: pIC50
Data value: > 7.00

Compound: CN1CCN(c2cccc(Nc3cc(-c4nc(N5CC[C@@H](O)C5)c5c(C6CC6)cncc5n4)ccn3)c2)CC1
Measured metric: pIC50
Data value: > 7.00

Compound: COc1cncc2nc(-c3ccnc(Nc4ccccc4)c3)nc(N[C@@H]3CCNC3)c12
Measured metric: pIC50
Data value: > 7.00

Compound: CC(C)(C)c1cc2c(-c3nc(N4CCNC(=O)CC4)c4c(C5CC5)cncc4n3)ccnc2[nH]1
Measured metric: pIC50
Data value: > 7.00

Compound: O=C1CC(Nc2nc(-c3ccnc(Nc4c(F)cccc4F)c3)nc3cncc(C4CC4)c23)CCN1 (centres unmarked)
Measured metric: pIC50
Data value: 6.00 to 7.00

Compound: CN(c1nc(-c2ccnc(Nc3c(F)cccc3F)c2)nc2cncc(C3CC3)c12)[C@@H]1CCNC1
Measured metric: pIC50
Data value: > 7.00

Compound: CC(C)NC(=O)C1CCN(c2nc(-c3ccncc3)nc3cnccc23)CC1
Measured metric: pIC50
Data value: 5.00 to 6.00

Indicate the recorded pIC50 value for this compound: CN(c1nc(-c2ccnc3[nH]c(C(F)(F)F)cc23)nc2c(Cl)ncc(C3CC3)c12)C1CCNCC1
> 7.00
